# Test system: OVCAR-3
# run description: NCI tumour cell line growth inhibition, 48 h
Activity calls are given as the source filed them. Rule as the data show it: active = GI50 up to about 1.1 µM and inactive = higher.
Give GI50 for every item shown.

// below: answered molecules
* O=C1OC(C2=CC(=O)c3ccccc3C2=O)C(Cl)=C1Cl (stereo not given) | 33.1 µM (inactive)
* COc1ccc2c(c1)OCC1Cc3cccc(OC)c3OC21 (stereo not given) | 51.2 µM (inactive)
* COc1cccc2c1N[S@](=O)S2 | > 100 µM (inactive)
* Cn1c(=O)oc2cc(C(O)CN3CCN(Cc4ccc5c(c4)OCO5)CC3)ccc21 (stereo not given) | > 100 µM (inactive)
* O=C1C(Cl)=C(Oc2ccc([N+](=O)[O-])cc2)C(=O)c2c(O)ccc(O)c21 | 33.6 µM (inactive)
* CCCCCCCCCCCCCCCCNc1nc(=O)n(C2CC(O)C(CO)O2)cc1F (stereo not given) | 13.9 µM (inactive)
* CC(=O)Oc1c2c(c(O)c3ccccc13)C(n1cnc3c(ncn3C3OC(CO)C4OC(C)(C)OC43)c1=N)CCC2 (stereo not given) | 14.5 µM (inactive)
* C1CNCCNCCNCCN1 | 72.6 µM (inactive)

For every item in the list below, what is its measured GI50?
1. O=C(/N=C1\SCCN1C(=O)C(C(F)(F)F)C(F)(F)F)C(C(F)(F)F)C(F)(F)F
2. CC1=CC(/C=C(\C)CCCc2ccoc2)C2(OC(=O)C(C)=C2O)[C@H]2C1CC[C@@H]2C (stereo not given in full)

result:
1. > 100 µM (inactive)
2. 21.4 µM (inactive)

====

Give GI50 for every item shown.
# Tested on: U-251
# run description: NCI tumour cell line growth inhibition, 48 h
Calls of active or inactive are those of the source. Cut-off read from the data, not from the text of the source: active = GI50 up to about 1.1 µM and inactive = higher.

// below: answered compounds
- Cc1ccnc(NS(=O)(=O)c2ccc(N=[N+]=[N-])cc2)n1: > 100 µM (inactive)
- CCCCn1c2ccccc2c2ccc3c(c21)C(=O)C=CC3=O: > 100 µM (inactive)

Summary line: CCCCCCCCCCC(=O)CC(=O)c1c(O)cccc1O , U-251, reported GI50 = 21.5 µM (inactive)

====

# System: U-251
# run description: NCI tumour cell line growth inhibition, 48 h
Calls of active or inactive are those of the source. Cut-off read from the data, not from the text of the source: active = GI50 up to about 1.1 µM and inactive = higher.
quantity measured: GI50

* CSC(=S)c1ccc(C(=S)SC)cc1 | > 100 µM (inactive)
* COC1CCC(CO)OO1 (stereo unspecified) | 4.57 µM (inactive)
* Oc1cc(O)c2c(c1)OC(c1ccc(O)c(O)c1)C(OC1(c3cc(O)c(O)c(O)c3)Oc3cc(O)cc(O)c3C(O)C1O)C2 (stereo unspecified) | 20.8 µM (inactive)
* CC(=O)CC(=O)CCCC(=O)Nc1ccc(Cl)cc1C | > 100 µM (inactive)
* CN(C)/C=N/S(=O)(=O)c1nn2c(C=O)c(-c3ccc(Cl)cc3)nc2s1 | 2.95 µM (inactive)

Now examine the next entry.
Note to self: GI50 recorded for CN1N=C(c2ccncc2)OC1c1ccc(Cl)c(Cl)c1 (stereo unspecified) was > 100 µM (inactive)

====

Give GI50 for every item shown.
# Tested on: NCI-H23
# run description: NCI tumour cell line growth inhibition, 48 h
Active and inactive are the calls of the source. Cut-off read from the data, not from the text of the source: active = GI50 up to about 1.1 µM and inactive = higher.

// below: answered compounds
- CCNCCNC(=O)c1ccc(Br)cc1: > 100 µM (inactive)
- N#Cc1nc(CCCCCN2C(=O)c3ccccc3C2=O)oc1N: > 100 µM (inactive)
- COC(=O)[C@@H]1CN(C(C)=O)C(=O)N1C(=O)OCc1ccccc1: > 100 µM (inactive)

For every item in the list below, what is its measured GI50?
1. O=C(NC(CS)C(=O)O)c1cccc2c(=O)c3ccccc3[nH]c12 (stereo unspecified)
2. Cc1c(C)c(S(=O)(=O)N(CCCCCN)OCCCN)c(C)c2c1OC(C)(C)CC2
3. Oc1nc2c(c(-c3ccccc3Cl)n1)COC/C2=C\c1ccccc1Cl

result:
1. > 100 µM (inactive)
2. 14.6 µM (inactive)
3. > 100 µM (inactive)
